- procedure_details: small-molecule binders of probe aInhba, primary screen, biochemical, small-molecule microarray, 635/667 nm fluorescence (AID 1148);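 also: score merges 667nm spot fluorescence with signal-to-noise for antibody binding to printed compounds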
- experimental_context: higher = more signal
t means recorded composite z-score is 0.4 or above; f means it is below 0.4.

O=C1C[C@]2(c3ccc([N+](=O)[O-])cc3)C(=O)N(CC(F)(F)F)c3cc(CO)ccc3[C@H]2N1C1CCCCC1    f

q: Could you tell me if the measured composite z-score of "O=C1O[C@@H](c2ccccc2)[C@@H](c2ccccc2)N2[C@@H](c3ccccc3OCCO)[C@]3(C(=O)Nc4ccccc43)[C@@H](C(=O)Nc3nc4ccccc4s3)[C@H]12" reaches 0.4 or more?
a: f

q: Could you tell me if the measured composite z-score of "COC(=O)[C@@]1(Cc2ccc(OC)cc2)[C@H]2c3cc(C(=O)N4CCCC4)n(Cc4ccc(O)c(OC)c4)c3C[C@H]2CN1C(=O)c1ccccc1" reaches 0.4 or more?
a: t

q: Could you tell me if the measured composite z-score of "COCCOC(=O)N1C(=O)[C@@]2(c3cc(C#CCNC(N)=O)ccc31)[C@H](C(=O)Nc1nc3ccccc3s1)[C@H]1C(=O)O[C@H](c3ccccc3)[C@H](c3ccccc3)N1[C@@H]2c1ccc(OCCO)cc1" reaches 0.4 or more?
a: f

q: Could you tell me if the measured composite z-score of Cc1ccccc1C(O)C1C=CC2C(=O)N(c3ccccc3)C(=O)C2N1Nc1ccc(C(C)C)cc1 (stereo not drawn) reaches 0.4 or more?
a: f

q: Could you tell me if the measured composite z-score of COc1cc2c(cc1O)C(c1cccs1)N(C)CC2 (stereo not drawn) reaches 0.4 or more?
a: f

q: Could you tell me if the measured composite z-score of "C=CCN1C(=O)[C@@]2(Cc3ccccc31)N=C(c1ccc(OCCCO)cc1)O[C@H]2c1ccccc1" reaches 0.4 or more?
a: f

q: Could you tell me if the measured composite z-score of "COCCOC(=O)N1C(=O)[C@@]2(c3cc(C#CC4(O)CCCCCC4)ccc31)[C@H](c1ccccc1OCCO)N1[C@H](c3ccccc3)[C@H](c3ccccc3)OC(=O)[C@H]1[C@@H]2C(=O)N1CCN(c2ncccn2)CC1" reaches 0.4 or more?
a: f

q: Could you tell me if the measured composite z-score of "CO[C@H]1O[C@H](CO)[C@@H](OC(=O)Nc2ccc(Oc3ccccc3)cc2)[C@H](OC(=O)Nc2ccc3c(c2)OCO3)[C@H]1OC(=O)Nc1ccc2c(c1)OCO2" reaches 0.4 or more?
a: t

q: Could you tell me if the measured composite z-score of "COc1ccc(C#Cc2ccc3c(c2)[C@]2(C(=O)N3)[C@H](c3ccccc3OCCO)N3[C@H](c4ccccc4)[C@H](c4ccccc4)OC(=O)[C@H]3[C@@H]2C(=O)Nc2nc3ccccc3s2)cc1" reaches 0.4 or more?
a: t

q: Could you tell me if the measured composite z-score of "CC(C)NC(=O)[C@@]1(C)c2ccccc2C(=O)N(Cc2cc(C(F)(F)F)cc(C(F)(F)F)c2)[C@H]1c1ccc(CO)cc1" reaches 0.4 or more?
a: f

q: Could you tell me if the measured composite z-score of CCCc1cc2c(n1Cc1cc(F)cc(F)c1)C(C)C1CN(C(=O)c3ccccc3)C(C)(C(=O)OC)C21 (stereo not drawn) reaches 0.4 or more?
a: t

q: Could you tell me if the measured composite z-score of "CC(C)N1C(=O)C[C@@](C(=O)NCC(F)(F)F)(c2ccc([N+](=O)[O-])cc2)[C@H]1c1ccc(CO)cc1" reaches 0.4 or more?
a: f
